# credit: patent EP4678638A1

- target-system: human Cereblon WT GST-tagged protein (Homo sapiens)
- Construct: purchased CISBIO 64BDCRBNPEH
- Sequence (Q96SW2 whole entry): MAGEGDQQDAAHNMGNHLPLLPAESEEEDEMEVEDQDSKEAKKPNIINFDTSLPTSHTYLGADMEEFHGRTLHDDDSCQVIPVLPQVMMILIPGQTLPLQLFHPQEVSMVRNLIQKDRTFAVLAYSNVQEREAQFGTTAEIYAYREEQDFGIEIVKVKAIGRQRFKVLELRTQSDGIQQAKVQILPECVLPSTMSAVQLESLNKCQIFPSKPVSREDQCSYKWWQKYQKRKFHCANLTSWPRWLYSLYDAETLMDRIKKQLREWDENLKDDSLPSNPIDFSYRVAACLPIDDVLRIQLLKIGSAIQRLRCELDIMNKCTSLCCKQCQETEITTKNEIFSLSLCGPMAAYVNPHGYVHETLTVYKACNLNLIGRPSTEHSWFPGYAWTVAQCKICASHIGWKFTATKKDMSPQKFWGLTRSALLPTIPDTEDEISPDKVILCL
- test-summary: CRBN binding, HTRF (CEREBLON BINDING kit)
- condition-label: Table II-2, CRBN binding screening, HTRF; at 0.5µM; read-out: Inhibition rate (%) at 0.5µM
reported-endpoint: inhibition at 0.5 µM

Please review the following examples before continuing.
{"molecule": "Cc1nc2c(F)cc(-c3nc(Nc4ccc(N5CCC(N6CCN(Cc7ccnc(N8CCC(=O)NC8=O)c7)CC6)CC5)cn4)ncc3F)cc2n1C(C)C", "measured": "30 to 40%"}
{"molecule": "O=C1CCN(c2cnc(F)c(CN3CCC(n4cc(NC(=O)c5cnn6ccc(N7CCOCC7)nc56)c(C(F)F)n4)CC3)c2)C(=O)N1", "measured": "20 to 30%"}

Name the reported inhibition at 0.5 µM value associated with the molecule CC(C)(O)c1cc2nn(C3CCN(Cc4ccc(C5CCC(=O)NC5=O)cn4)CC3)cc2cc1NC(=O)c1cccc(C(F)(F)F)n1 (stereo not shown) 40 to 53%

Please report the recorded inhibition at 0.5 µM for CNC(=O)c1ccccc1Nc1cc(Nc2cc(C)c(C3CCN(Cc4ccc(N5CCC(=O)NC5=O)cc4)CC3)cc2OC(C)C)ncc1C(F)(F)F . 20 to 30%

Any idea what inhibition at 0.5 µM was measured for O=C1CCN(c2cnc(CN3CCN(c4ccc(-c5cc(F)c6c(c5)C(=O)N(C(C(=O)Nc5nccs5)c5ncn7c5CCC7)C6)cc4)CC3)cn2)C(=O)N1 (stereo not shown) ? 20 to 30%

Recorded inhibition at 0.5 µM for CC(C)(O)c1cc2nn(C3CCN(Cc4cncc(N5CCC(=O)NC5=O)c4)CC3)cc2cc1NC(=O)c1cccc(C(F)(F)F)n1 , please? 30 to 40%

Form field: reported inhibition at 0.5 µM of CC(C)(O)c1cc2nc(C3CCN(Cc4cncc(C5CCC(=O)NC5=O)c4)CC3)sc2cc1NC(=O)c1cccc(C(F)(F)F)n1 (stereo not shown) 20 to 30%

====

- Tested on: SW620
- test-summary: CCK-8 proliferation, SW620
- Format: cell-based
- condition-label: Homo sapiens, SW-620; CCK-8; 96 hours; read-out: Inhibitory activity (IC50) on tumor cell proliferation, SW620
- Description: The tumor cells used herein were cultured in a cell culture medium listed in table A1 at 37°C in an incubator with 5% CO2. […] IC50 values of the compounds of the present disclosure (including the compounds in Table 1, and compounds of examples) were measured using the Meilun Cell Counting Kit-8 kit from Dalian Meilun Biotech Co., Ltd. Assay details are as follows: tumor cells were seeded in a 96-well plate at a density listed in Table A2. […]
reported-endpoint: IC50

{"molecule": "C=CC(=O)N1CCC(c2ccc(C(N)=O)c(-c3ccc(Oc4ccccc4)cc3)n2)CC1 [Orelabrutinib, reference compound]", "target-system": "SW620", "IC50": "> 10000 nM"}
{"molecule": "CN(Cc1ccc(C2CCC(=O)NC2=O)c(F)c1)C1CCN(c2ncc(C(=O)Nc3ccc(OC(F)(F)Cl)cc3)cc2-c2cc[nH]n2)CC1 (stereo not drawn)", "target-system": "SW620", "IC50": "100 to 500 nM"}
{"molecule": "O=C1CCC(c2ccc(CN3CCC(N4CCN(c5ncc(C(=O)Nc6ccc(OC(F)(F)Cl)cc6)cc5-c5cc[nH]n5)CC4)CC3)cc2F)C(=O)N1 (stereo not drawn)", "target-system": "SW620", "IC50": "100 to 500 nM"}
{"molecule": "CNC(=O)c1ccc(Nc2ncc(C(F)(F)F)c(NCc3nccnc3N(C)S(C)(=O)=O)n2)cc1 [Defactinib, reference compound]", "target-system": "SW620", "IC50": "1000 to 5000 nM"}
{"molecule": "CN1CCN([C@@H]2CCCN(c3cnc(C(N)=O)c(Nc4ccc(C5CCN(Cc6ccc(N7CCC(=O)NC7=O)cc6F)CC5)cc4)n3)C2)C1=O", "target-system": "SW620", "IC50": "100 to 500 nM"}

Turning now to a further record.
Fill blank: measured IC50 of the molecule CNC(=O)c1ccccc1Nc1cc(Nc2ccc(N3CCC(N4CCN(Cc5ccc(C6CCC(=O)NC6=O)c(F)c5)CC4)CC3)cc2OC)ncc1C(F)(F)F (stereo not drawn) is ____. 50 to 100 nM

====

Listed next: entries and their corresponding IC50.
- System: DU-145
- test-summary: CCK-8 proliferation, DU-145
- Assay type: cell-based
- condition-label: Homo sapiens, 96 hours, read-out: Inhibitory activity (IC50) on tumor cell proliferation, DU-145
- Method: The tumor cells used herein were cultured in a cell culture medium listed in table A1 at 37°C in an incubator with 5% CO2. […] IC50 values of the compounds of the present disclosure (including the compounds in Table 1, and compounds of examples) were measured using the Meilun Cell Counting Kit-8 kit from Dalian Meilun Biotech Co., Ltd. Assay details are as follows: tumor cells were seeded in a 96-well plate at a density listed in Table A2. […]

Example entries and their recorded answers appear below.
{"compound": "C[C@]12CC[C@H](O)CC1=CC[C@@H]1[C@@H]2CC[C@]2(C)C(c3cccnc3)=CC[C@@H]12", "target-system": "DU-145", "measured": "> 10000 nM"}
{"compound": "O=C(NC1CCNCC1)c1[nH]ncc1NC(=O)c1c(Cl)cccc1Cl [AT7519, reference compound]", "target-system": "DU-145", "measured": "500 to 1000 nM"}
{"compound": "O=C1CCN(c2ccc(COc3ccc(Cl)cc3-c3nc4cc(C(F)(F)F)cc(Cl)c4[nH]3)cc2)C(=O)N1", "target-system": "DU-145", "measured": "100 to 500 nM"}

Recorded IC50 for O=C1CCC(c2ccc(CN3CCC(n4cc(NC(=O)c5coc(-c6ccnc(NCC(F)(F)F)c6)n5)c(C(F)F)n4)CC3)cc2)C(=O)N1 (stereo not shown) with DU-145, please? 100 to 500 nM

Notebook: pull reported IC50 for DU-145, entry O=C1CCC(c2ccc(CN3CCC(n4cc(NC(=O)c5coc(-c6ccnc(NCC(F)(F)F)c6)n5)c(C(F)F)n4)CC3)cc2F)C(=O)N1 (stereo not shown) 500 to 1000 nM

Observed IC50 on DU-145 for O=C1CCN(c2ccc(COc3ccc(Cl)cc3-c3nc4cc(C(F)(F)F)cc(Cl)c4[nH]3)cn2)C(=O)N1 , please. 50 to 100 nM

IC50 of Cc1ccc(-c2c(C)noc2C)cc1N(CC1CCN(Cc2ccc(N3CCC(=O)NC3=O)cn2)CC1)c1ccc(C2(C#N)CC2)cc1 on DU-145? 500 to 1000 nM

====

- Test system: THP-1
- test-summary: CCK-8 proliferation, THP-1
- Type: cell-based
- condition-label: Homo sapiens, 72 hours, read-out: Inhibitory activity (IC50) on tumor cell proliferation, THP-1
pIC50: −log10 of the molar value.
reported-endpoint: pIC50

Some molecules with recorded pIC50:
{"molecule": "Cc1ccc(-c2c(C)noc2C)cc1N(CC1CCN(Cc2cccc(NC3CCC(=O)NC3=O)c2)CC1)c1ccc(C2(C#N)CC2)cc1 (centres unmarked)", "target-system": "THP-1", "pIC50": "6.00 to 6.30"}
{"molecule": "Cc1ccc(-c2c(C)noc2C)cc1N(CC1CCN(Cc2ccc(N3CCC(=O)NC3=O)cc2F)CC1)c1ccc(C2(C#N)CC2)cc1", "target-system": "THP-1", "pIC50": "6.00 to 6.30"}

Any idea what pIC50 was measured for CC1(C)CCC(c2ccc(Cl)cc2)=C(CN2CCN(c3ccc(C(=O)NS(=O)(=O)c4ccc(N[C@H](CCN5CCN(Cc6cccc(NC7CCC(=O)NC7=O)c6)CC5)CSc5ccccc5)c(S(=O)(=O)C(F)(F)F)c4)cc3)CC2)C1 (some centres unmarked) ? 7.30 to 8.00

I have this molecule here, Cc1ccc(-c2c(C)noc2C)cc1N(CC1CCN(Cc2ccc(N3CCC(=O)NC3=O)c(F)c2)CC1)c1ccc(C2(C#N)CC2)cc1 , and I need its recorded pIC50. 6.00 to 6.30

What value of pIC50 has been recorded for this entry: CC1(C)CCC(c2ccc(Cl)cc2)=C(CN2CCN(c3ccc(C(=O)NS(=O)(=O)c4ccc(N[C@H](CCN5CCOCC5)CSc5ccccc5)c(S(=O)(=O)C(F)(F)F)c4)cc3)CC2)C1 [ABT-263, Navitoclax, reference compound] 6.30 to 7.00

====

- target-system: human Cereblon WT GST-tagged protein (Homo sapiens)
- Construct: purchased CISBIO 64BDCRBNPEH
- test-summary: CRBN binding, HTRF (CEREBLON BINDING kit)
- condition-label: Table II-2, CRBN binding screening, HTRF; at 2 µM; read-out: Inhibition rate (%) at 2 µM
Reported inhibition at 2 µM values for a set of compounds

Study these solved cases before continuing.
{"compound": "O=C1CCN(c2cnc(F)c(CN3CCN(c4ccc(-c5cc(F)c6c(c5)C(=O)N(C(CNc5nccs5)c5ncn7c5CCC7)C6)cc4)CC3)c2)C(=O)N1 (stereo not shown) [GT-07760]", "inhibition at 2 µM": "60 to 80%"}
{"compound": "COc1cc2nn(C3CCN(Cc4cncc(C5CCC(=O)NC5=O)c4)CC3)cc2cc1NC(=O)c1cccc(C(F)(F)F)c1 (stereo not shown) [GT-07419]", "inhibition at 2 µM": "53 to 60%"}
{"compound": "COc1cc(C(=O)NC2CCN(Cc3ccc(C4CCC(=O)NC4=O)cc3)CC2)c(F)cc1Nc1ncc(C(F)(F)F)c(Oc2cccc3c2C(=O)N(C)C3)n1 (stereo not shown) [GT-04034]", "inhibition at 2 µM": "80 to 100%"}
{"compound": "CC(C)(O)c1cc2nn(C3CCN(Cc4ccc(C5CCC(=O)NC5=O)cn4)CC3)cc2cc1NC(=O)c1cccc(C(F)(F)F)n1 (stereo not shown) [GT-07541]", "inhibition at 2 µM": "60 to 80%"}
{"compound": "CNC(=O)c1ccccc1Nc1cc(Nc2cc(C)c(N3CCC(N(C)Cc4ccc(C5CCC(=O)NC5=O)c(F)c4)CC3)cc2OC(C)C)ncc1C(F)(F)F (stereo not shown) [GT-04095]", "inhibition at 2 µM": "60 to 80%"}

Tell me the measured inhibition at 2 µM of O=C1CCC(c2cc(CN3CCC(n4cc(NC(=O)c5cnn6ccc(N7C[C@H]8C[C@@H]7CO8)nc56)c(C(F)F)n4)CC3)ccn2)C(=O)N1 (stereo partly shown) [GT-07776] , please. 60 to 80%

Would you kindly share the measured inhibition at 2 µM for CC(C)(O)c1cc2nc(C3CCN(Cc4cncc(C5CCC(=O)NC5=O)c4)CC3)oc2cc1NC(=O)c1cccc(C(F)(F)F)n1 (stereo not shown) [GT-07630] ? 60 to 80%

Sample O=C1CCC(c2cnc(F)c(CN3CCC(n4cc(NC(=O)c5cnn6ccc(N7CCOCC7)nc56)c(C(F)F)n4)CC3)c2)C(=O)N1 (stereo not shown) [GT-07767] — what was its inhibition at 2 µM? 80 to 100%

If you can, please state the reported inhibition at 2 µM value of Nc1ncnc2c1c(-c1ccc(Oc3ccccc3)cc1)nn2C1CCN(Cc2ccc(C3CCC(=O)NC3=O)c(F)c2)CC1 (stereo not shown) [GT-03508] . 60 to 80%

Would you mind telling me what inhibition at 2 µM value was observed for CC(C)Nc1cc(-n2ccc3cc(C#N)cnc32)ncc1C(=O)NC1CCN(Cc2cc(N3CCC(=O)NC3=O)cnc2F)CC1 [GT-07779] ? 60 to 80%

Reported inhibition at 2 µM for CC(C)(O)c1cc2nc(C3CCN(Cc4cncc(C5CCC(=O)NC5=O)c4)CC3)sc2cc1NC(=O)c1cccc(C(F)(F)F)n1 (stereo not shown) [GT-07624] : what is it? 60 to 80%

Entry COc1cc(N2CCC(N(C)Cc3ccc(C4CCC(=O)NC4=O)c(F)c3)CC2)ccc1Nc1ncc(Cl)c(Nc2ccccc2P(C)(C)=O)n1 (stereo not shown) [GT-03604] : reported inhibition at 2 µM = ? 53 to 60%

What value of measured inhibition at 2 µM is listed for CN(C)C(=O)c1cc2cnc(Nc3ccc(N4CCN(Cc5cncc(N6CCC(=O)NC6=O)c5)CC4)cn3)nc2n1C1CCCC1 [GT-07476] ? 60 to 80%
